Biological target: T1, mouse B7-H4 (recombinant, BLI) (mouse, UniProt Q7TSP5 29-256, limits assumed)
T1 construct: also called murine B7-H4
T1 sequence: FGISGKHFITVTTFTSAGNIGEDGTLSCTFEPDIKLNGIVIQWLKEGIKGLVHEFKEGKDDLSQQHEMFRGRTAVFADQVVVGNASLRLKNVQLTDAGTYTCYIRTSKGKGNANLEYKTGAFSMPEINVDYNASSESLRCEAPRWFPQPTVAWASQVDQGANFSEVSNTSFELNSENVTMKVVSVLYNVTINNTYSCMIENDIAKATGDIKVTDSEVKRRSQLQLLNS
Assay: BLI, antigen on Protein A tips;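 also: Anti-B7-H4 antibodies assessed for affinity toward the B7-H4 extracellular domain using biolayer interferometry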
measured_metric: kon (M⁻¹ s⁻¹)
Numbers only, in M⁻¹ s⁻¹.

Would you please look over these solved cases?
>  <binder>
B7-H4 antibody 20496 (antibody, human IgG1, kappa, V domains shown, human IgG1/kappa) VH: QLQLQESGPGLVKPSETLSLTCTVSGGSISSSVYYWSWIRQPPGKGLEWIGSILVSGSTYYNPSLKSRVTISVDTSKNQFSLKLSSVTAADTAVYYCARAVSFLDVWGQGTMVIVSS VL: DIQMTQSPSSLSASVGDRVTITCRASQSISSYLNWYQQKPGKAPKLLIYGASSLQSGVPSRFSGSGSGTDFTLTISSLQPEDFATYYCQQSYDPPWTFGGGTKVEIKR

>  <unit_text>
M⁻¹ s⁻¹

>  <kon>
692000

$$$$
>  <binder>
B7-H4 antibody 15465 (antibody, human IgG1, kappa, V domains shown, human IgG1/kappa) VH: QVQLQESGPGLVKPSQTLSLTCTVSGGSISSGGYYWSWIRQHPGKGLEWIGNIYYSGSTYYNPSLKSRVTISVDTSKNQFSLKLSSVTAADTAVYYCARESSTISADFDLWGRGTLVTVSS VL: DIQMTQSPSSVSASVGDRVTITCRASQGISRWLAWYQQKPGKAPKLLIYAASSLQSGVPSRFSGSGSGTDFTLTISSLQPEDFATYYCQQAHTFPYTFGGGTKVEIKR

>  <unit_text>
M⁻¹ s⁻¹

>  <kon>
296000

$$$$

Here is the next item to consider.
Please report kon for the following binder: B7-H4 antibody 15461 (antibody, human IgG1, kappa, V domains shown, human IgG1/kappa) VH: QLQLQESGPGLVKPSETLSLTCTVSGGSISSSSYYWGWIRQPPGKGLEWIGNIYYSGSTYYNPSLKSRVTISVDTSKNQFSLKLSSVTAADTAVYYCAREGSYPNWFDPWGQGTLVTVSS VL: EIVMTQSPATLSVSPGERATLSCRASQSVSSNLAWYQQKPGQAPRLLIYGASTRATGIPARFSGSGSGTEFTLTISSLQSEDFAVYYCQQYHSFPFTFGGGTKVEIKR
305000
